# Tested on: 327498-153-R-J2-PDC complex spheroid growth, % test/control;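 further: spheroids exposed to compound for 7 days after 3 days of growth; 100% = DMSO vehicle control wells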
# runDescription: Anticancer human tumor 327498-153-R-J2-PDC patient-derived uterine carcinosarcoma cell line growth inhibition [Asc]
# assaySetup: second compound 1 µM; first compound 0.0316 µM; hits give low values
measurementLabel: viability, T/C (%)
// note: answer is a bare numeric in %

Input line: Give the reported viability, T/C for this compound. COc1c(OCCCN2CCOCC2)ccc2c3n(c(=NC(=O)c4cnc(N)nc4)nc12)CCN3 + CNC(C)C(=O)NC1CN(S(=O)(=O)c2cccc(S(=O)(=O)N3CCC4CCC(C(=O)NC(c5ccccc5)c5ccccc5)N4C(=O)C(NC(=O)C(C)NC)C3)c2)CCC2CCC(C(=O)NC(c3ccccc3)c3ccccc3)N2C1=O
Output line: 85.1

Input line: Give the reported viability, T/C for this compound. C#Cc1c(F)ccc2cc(O)cc(-c3ncc4c(N5CC6CCC(C5)N6)nc(OCC56CCCN5CC(F)C6)nc4c3F)c12 (stereo not given) + CNC(C)C(=O)NC1CN(S(=O)(=O)c2cccc(S(=O)(=O)N3CCC4CCC(C(=O)NC(c5ccccc5)c5ccccc5)N4C(=O)C(NC(=O)C(C)NC)C3)c2)CCC2CCC(C(=O)NC(c3ccccc3)c3ccccc3)N2C1=O
Output line: 96.3

Input line: Give the reported viability, T/C for this compound. CCN1CCN(Cc2ccc(Nc3ncc(F)c(-c4cc(F)c5nc(C)n(C(C)C)c5c4)n3)nc2)CC1 + Cc1c(S(C)(=O)=O)c(-c2cc(F)cc(N3CCN(c4ccc(NS(=O)(=O)c5ccc(NC(CCN6CCC(C(=O)OCCCP(=O)(O)O)CC6)CSc6ccccc6)c(S(=O)(=O)C(F)(F)F)c5)cc4)CC3)c2)c(-c2ccc(Cl)cc2)n1C(C)C
Output line: 85.9
